The reported measurements were obtained from the supplement of paper PMC11451515.

- Tested on: P12-Ichikawa
- method-notes: cell viability relative to DMSO control; higher = less cytotoxic
- test-conditions: RPMI 5 mM glucose + 10% FBS; 48 h; 15.4 µM
measure-name: cell viability (%)
// note: answer is a bare numeric in %

Consider the following illustrative entries.
CC(C)(C)NC(=O)Nc1cccc(Nc2ncc(F)c(NC(C)(C)CO)n2)c1 : 35.2
CC(C)(C)OC(=O)N[C@H]1CCCCC/C=C\[C@@H]2C[C@@]2(C(=O)N[S+](=O)([O-])C2CC2)NC(=O)[C@@H]2C[C@@H](OC(=O)N3Cc4cccc(F)c4C3)CN2C1=O : 104
CC(C)N[C@@H]1CCn2c(=O)[nH]c3cccc(c32)[C@H]1O : 113
CC(C)c1ccc2c(c1)c(SC(C)(C)C)c(CC(C)(C)C(=O)[O-])n2Cc1ccc(Cl)cc1 : 85.3

[in] What does the data say about its cell viability? Entry: CCc1ccc(CCOc2ccc(CC3SC(=O)NC3=O)cc2)nc1 (stereo not drawn)
[out] 118

[in] Input O=C(O)CCC1CCC(c2cc(F)ccc2F)([S+](=O)([O-])c2ccc(Cl)cc2)CC1 (stereo not drawn)
[out] 24.3

[in] Further, for CN[C@@H](C)[C@H]1[C@H](O)C[C@@]2(C)[C@@H]3CC[C@H]4C(C)(C)[C@@H](NC)CC[C@@]45C[C@@]35CC[C@]12C ?
[out] 105

[in] Also check COCC1(CO)C(=O)C2CCN1CC2 (stereo not drawn)
[out] 53.6

---

Recorded cell viability for the following compounds
- System: NOMO1
- method-notes: cell viability relative to DMSO control; higher = less cytotoxic
- test-conditions: RPMI 5 mM glucose + 10% dialyzed FBS; 48 h; 5.12 µM
The reply should contain only the number, in %.

Illustrative cases are given below, each with its answer.
CC[C@H](NC1=C2N=C[NH]C2=NC=N1)C/3=N/C4=C(C(=CC=C4)F)C(=O)N3C5=CC=CC=C5 : 100
Cc1c(C)n(Cc2ccc(-c3ccccc3C(=O)O)cc2)c2ccc(C(=O)N[C@@H](C)c3ccc([N+](=O)[O-])cc3)cc12 : 111
CC(C)OC(=O)/C1=C/N(CC(C)(C)C2=C1[NH]C3=CC=CC=C23)C(=O)C4=CC=C(F)C(=C4)F : 80.5
CC[C@]12CC[C@H]3[C@@H](CCC/4=C/C(=O)CC[C@H]34)[C@@H]1\C=C/[C@@]2(O)C#C : 138
ClC1=CC=C(C=C1)C(C#N)C2=C(Cl)C=C(C=C2Cl)N3\N=C/C(=O)NC3=O (configuration not stated) : 94.6

[in] Sample OC[C@H]1O[C@H]([C@H](O)[C@@H]1O)N2\C=C/C(=O)NC2=O — what was its cell viability?
[out] 96

[in] # repeat for NNCCc1ccccc1
[out] 109

[in] Request: O=C1c2ccccc2-[n+]2ccc3c([nH]c4ccccc43)c21
[out] 66.4

[in] Try the compound CC1CNc2c(cccc2[S+](=O)([O-])N[C@@H](CCCNC(=N)N)C(=O)N2CC[C@@H](C)C[C@@H]2C(=O)O)C1 (some centres not stated)
[out] 99.6

[in] Do the same for C[C@]12CC[C@H]3[C@@H](CC[C@H]4NC(=O)\C=C/[C@]34C)[C@@H]1CC[C@@H]2C(=O)NC5=CC(=CC=C5C(F)(F)F)C(F)(F)F please
[out] 94.9

---

- System: P12-Ichikawa
- method-notes: AUC of viability dose-response curve (% viability x log10 dose units); higher = less sensitive
- test-conditions: RPMI 5 mM glucose + 10% FBS; 48 h
measure-name: AUC of viability dose-response curve
Format: numeric value only, no unit, no commentary.

# annotated cases, reported AUC of viability dose-response curve shown
OC[C@H]1O[C@H]([C@H](O)[C@@H]1O)N2\C=C/C(=O)NC2=O : 456
c1ccc(CCCN2CCN(CCOC(c3ccccc3)c3ccccc3)CC2)cc1 : 432

[in] What value of AUC of viability dose-response curve has been reported for the following compound? C[S+](=O)([O-])Nc1ccc([N+](=O)[O-])cc1Oc1ccccc1
[out] 456

[in] Try the compound COCCOc1ccc2c(c1)ncn2-c1ccc2cccc(N3CCC(N)CC3)c2n1
[out] 405

[in] Next record, please: CC[C@]12CC[C@H]3[C@@H](CCC/4=C/C(=O)CC[C@H]34)[C@@H]1\C=C/[C@@]2(O)C#C
[out] 473

[in] Next up: Cc1nn(Cc2ccccc2Cl)c(C)c1CN(C)CC(O)COc1ccc(Cl)cc1 (stereo not drawn)
[out] 440

[in] Now give it for CCc1ccc(CCOc2ccc(CC3SC(=O)NC3=O)cc2)nc1 (stereo not drawn) too.
[out] 473

[in] Next record, please: COc1ccc([C@@H]2CC(=O)c3c(O)cc(O[C@@H]4O[C@H](CO[C@@H]5O[C@@H](C)[C@H](O)[C@@H](O)[C@H]5O)[C@@H](O)[C@H](O)[C@H]4O)cc3O2)cc1O
[out] 468

[in] Next record, please: CCN(CC)CCOc1ccc(/C(=C(\Cl)c2ccccc2)c2ccccc2)cc1
[out] 469

[in] Now try CCC[S+]([O-])c1ccc2[nH]c(NC(=O)OC)nc2c1 (stereo not drawn) .
[out] 393

[in] Cool, now CCN(CC)CCCCNc1ncc2cc(-c3cc(OC)cc(OC)c3)c(NC(=O)NC(C)(C)C)nc2n1
[out] 406

[in] Repeat for the following compound: NC1=C(Cl)C(=CC=N1)OC2=C(F)C=C(NC(=O)\C3=C\N\C=C(C3=O)\C4=CC=C(F)C=C4)C=C2
[out] 448

[in] Similarly, O=C(O)C1(Cc2cccc(Nc3nccs3)n2)CCC(Oc2cccc(Cl)c2F)CC1 (stereo not drawn) ?
[out] 373

[in] Try the compound CC(C)c1noc(N2CCC(COc3ccc(-c4ccc([S+](C)(=O)[O-])cc4)nc3)CC2)n1
[out] 453

[in] Note, next up: COCC1(CO)C(=O)C2CCN1CC2 (stereo not drawn)
[out] 414

[in] Param item: CNC(=O)c1c(-c2ccc(F)cc2)oc2cc(N(CCO)[S+](C)(=O)[O-])c(C3CC3)cc12
[out] 407

[in] Same for N[S+]([O-])(=O)C1=CC=C(NC/2=C/C(=O)C3=CC=CC=C3C2=O)C=C1
[out] 467

[in] CC(C)(C)NC(=O)Nc1cccc(Nc2ncc(F)c(NC(C)(C)CO)n2)c1 , same question.
[out] 425

---

- Test system: P12-Ichikawa
- method-notes: cell viability relative to DMSO control; higher = less cytotoxic
- test-conditions: RPMI 5 mM glucose + 10% FBS; 48 h; 0.0211 µM
Each item that follows carries a reported cell viability.
Value expressed in %; do not type the unit.

Answered examples (5):
CC1(C)O[C@@H]2C[C@H]3[C@@H]4C[C@H](F)C5=CC(=O)C=C[C@]5(C)[C@@]4(F)[C@@H](O)C[C@]3(C)[C@]2(C(=O)CO)O1 : 78.7
COC(=O)C[C@](O)(CCCC(C)(C)O)C(=O)O[C@@H]1C(OC)=CC23CCCN2CCc2cc4c(cc2[C@H]13)OCO4 (stereo partly drawn) : 94.8
CN(C)C1CCN(C(=O)c2ccc(NC(=O)Nc3nc(N4CCOCC4)nc(N4CCOCC4)n3)cc2)CC1 : 73
COc1ccc(-c2ccc3ncc4c(c3c2)n(-c2ccc(N3CCNCC3)c(C(F)(F)F)c2)c(=O)n4C)cn1 : 64.2
CC[C@H](NC1=C2N=C[NH]C2=NC=N1)C/3=N/C4=C(C(=CC=C4)F)C(=O)N3C5=CC=CC=C5 : 120

[in] Provide the documented cell viability with P12-Ichikawa as the system for C[C@]12CC[C@H]3[C@@H](CC[C@H]4NC(=O)\C=C/[C@]34C)[C@@H]1CC[C@@H]2C(=O)NC5=CC(=CC=C5C(F)(F)F)C(F)(F)F
[out] 108

[in] Consider next the compound Clc1ccc(-c2nc3sccn3c2/C=N/OCc2ccc(Cl)c(Cl)c2)cc1 in the same way.
[out] 102

[in] Next up: O=C1[C@H](Cc2ccc(O)cc2)N2C(=O)CCN(C(=O)NCc3ccccc3)[C@H]2CN1Cc1cccc2ccccc12
[out] 83

---

- Tested on: P12-Ichikawa
- method-notes: cell viability relative to DMSO control; higher = less cytotoxic
- test-conditions: RPMI 5 mM glucose + 10% dialyzed FBS; 48 h; 0.19 µM
Catalogue of cell viability values
Write the number in % without appending the unit.

Solved cases below.
CC[C@H](NC1=C2N=C[NH]C2=NC=N1)C/3=N/C4=C(C(=CC=C4)F)C(=O)N3C5=CC=CC=C5 : 115
O=C1[C@H](Cc2ccc(O)cc2)N2C(=O)CCN(C(=O)NCc3ccccc3)[C@H]2CN1Cc1cccc2ccccc12 : 82.1
CN[C@H]1CCC2=CC(=C(OC)C(=C2C/3=C/C=C(OC)\C(=O)/C=C13)OC)OC : 19
Cc1nc2cnc3ccc(C#Cc4cccnc4)cc3c2n1-c1ccc(C(C)(C)C#N)cc1 : 49.6
COc1cc(F)c(F)c(Nc2ccc(I)cc2F)c1N[S+](=O)([O-])C1(C[C@H](O)CO)CC1 : 104

[in] Dear colleague, I am looking for the recorded cell viability of the following molecule: NNCCc1ccccc1
[out] 111

[in] Proceed to O=C1NC(=O)/C(=C/c2ccc3nccc(-c4ccncc4)c3c2)S1
[out] 83.3

[in] Note, next up: N#CCNC(=O)c1ccc(-c2ccnc(Nc3ccc(N4CCOCC4)cc3)n2)cc1
[out] 109

[in] Entry CN1CCN(C2=Nc3cc(Cl)ccc3Nc3ccccc32)CC1 please
[out] 112

[in] Also, CNCC(O)c1ccc(O)cc1 (stereo not given) please.
[out] 113
